# Tested on: Arabidopsis thaliana plants
# test method notes: Phenotypic analysis of herbicide-treated Arabidopsis plants (SOA1)
# Format: in vivo
# study conditions: standardized to mock treated
measure: Dev. newLeafChlorosis
Answers are plain numbers.

{"columns": ["compound", "measure", "data value"],
 "data": [
  ["C[n+]1ccc(-c2cc[n+](C)cc2)cc1 [Paraquat]", "Dev. newLeafChlorosis", 1],
  ["CN(C)C(=O)Nc1ccc(Cl)c(Cl)c1 [Diuron]", "Dev. newLeafChlorosis", 2],
  ["O=C(O)COc1ccc(Cl)cc1Cl [2,4-D]", "Dev. newLeafChlorosis", 1],
  ["O=C(O)CNCP(=O)(O)O [Glyphosate]", "Dev. newLeafChlorosis", 2],
  ["c1cc[n+]2c(c1)-c1cccc[n+]1CC2 [Diquat]", "Dev. newLeafChlorosis", 1]
]}

Here's the next entry for you.
Query (compound): CP(=O)(O)CCC(N)C(=O)O (stereo not drawn) [Glufosinate] ; field requested: Dev. newLeafChlorosis
3

====

# System: Arabidopsis thaliana
# test method notes: Biochemical (metabolite) profiling by LC-MS and GC-MS of sprayed Arabidopsis (MOA1)
# study conditions: within one hour after spraying
measure: stress related (commonly regulated) metabolites

{"columns": ["compound", "data value"],
 "data": [
  ["CP(=O)(O)CCC(N)C(=O)O (centres unmarked) [Glufosinate]", "Only a few, if any"],
  ["CNc1cnn(-c2cccc(C(F)(F)F)c2)c(=O)c1Cl", "Only a few, if any"],
  ["CC(C)C1(C)N=C(c2ncccc2C(=O)O)NC1=O (centres unmarked)", "Only a few, if any"]
]}

====

# Tested on: Arabidopsis thaliana plants
# test method notes: Phenotypic analysis of herbicide-treated Arabidopsis plants (SOA1)
# Assay type: in vivo
# study conditions: standardized to mock treated
Task for the reader: assign each of the following compounds its reported Dev. matureLeafNecrosis.
Answers are plain numbers.

Take each entry in turn and give its Dev. matureLeafNecrosis.
1. CN(C)C(=O)Nc1ccc(Cl)c(Cl)c1 [Diuron]
2. CP(=O)(O)CCC(N)C(=O)O (stereo not drawn) [Glufosinate]

[4, 0]

Please state, for each entry, its recorded Dev. matureLeafNecrosis.
1. C[n+]1ccc(-c2cc[n+](C)cc2)cc1 [Paraquat]
2. c1cc[n+]2c(c1)-c1cccc[n+]1CC2 [Diquat]
3. O=C(O)COc1ccc(Cl)cc1Cl [2,4-D]
4. O=C(O)CNCP(=O)(O)O [Glyphosate]

4
4
0
3

====

# Test system: Arabidopsis thaliana plants
# test method notes: Phenotypic analysis of herbicide-treated Arabidopsis plants (SOA1)
# Format: in vivo
# study conditions: numeric values standardized to the average response for the mock treated tissues
measure: Dev. leafWidth
One number for each entry.

Some solved entries appear below for comparison.
{"columns": ["compound", "assayed target", "data value"],
 "data": [
  ["O=C(O)COc1ccc(Cl)cc1Cl [2,4-D]", "Arabidopsis thaliana plants", "−1"],
  ["C[n+]1ccc(-c2cc[n+](C)cc2)cc1 [Paraquat]", "Arabidopsis thaliana plants", "−1"],
  ["CP(=O)(O)CCC(N)C(=O)O (stereo not drawn) [Glufosinate]", "Arabidopsis thaliana plants", "−2"],
  ["c1cc[n+]2c(c1)-c1cccc[n+]1CC2 [Diquat]", "Arabidopsis thaliana plants", "−2"],
  ["O=C(O)CNCP(=O)(O)O [Glyphosate]", "Arabidopsis thaliana plants", 0]
]}

Attention now shifts to the item below.
Fill in: Dev. leafWidth of CN(C)C(=O)Nc1ccc(Cl)c(Cl)c1 [Diuron] is ___
−2
